- Test system: Staphylococcus aureus
- Measurement protocol: Antibacterial activity against 5 x 10^5 CFU/mL Staphylococcus aureus subsp. aureus ATCC 29213 incubated for 72 hrs followed by growing of cells on trypticase soy agar plate for 24 hrs by CLSI M07-A8 broth microdilution method
- Assay type: functional
Recorded MBC, one value per entry.
Numeric answer only, unit µM assumed.

Solved entries:
CCCCCCCCCCCCOc1cc(C[N+](C)(C)C)ccc1C[N+](C)(C)C
31
CCCCCCCCCCCCCCCCOc1cc(C[N+](C)(C)C)cc(C[N+](C)(C)C)c1.[Br-].[Br-]
8
CCCCCCCCCCCC[N+](C)(C)C
63

Problem: I would be grateful if you could share the reported MBC for CCCCCCCCCCCCCCOc1ccc(C[N+](C)(C)C)cc1C[N+](C)(C)C.[Br-].[Br-] .
Solution: 6

* * *

# Lookup of reported MIC keyed by entry
- System: Escherichia coli
- Measurement protocol: Antibacterial activity against 5 x 10^5 CFU/mL Escherichia coli ATCC 25922 after 72 hrs by CLSI M07-A8 broth microdilution method
- Assay type: functional
- Condition parameters: ATCC 25922, 72 h

Take a look at these entries with their results.
CCCCCCCCCCOc1cc(C[N+](C)(C)C)ccc1C[N+](C)(C)C
> 500 µM
CCCCCCCCCCCCOS(=O)(=O)[O-].[Na+] [SODIUM LAURYL SULFATE]
> 500 µM

Now look at this one.
Problem: Recorded MIC for CCCCCCCCCCCCCCOc1ccc(C[N+](C)(C)C)cc1.[Br-] , please?
Solution: > 500 µM
